Ref: PubChem BioAssay (NCI)

System: RXF 393 renal
Test: NCI tumour cell line growth inhibition, 48 h; in the data active = GI50 below about 0.43 µM; inactive = the rest
Outcome (select one): TRUE = active, FALSE = inactive

Solved entries:
CC[C@@]1(O)C(=O)OCc2c1cc1n(c2=O)Cc2c-1nc1cc(F)c(C)c3c1c2[C@@H](N)CC3 ... TRUE
N#Cc1ccc(OC(=O)Nc2ccc(Cl)c(Cl)c2)cc1 ... FALSE
O=C(N/N=C/c1ccc([N+](=O)[O-])o1)c1ccc(O)cc1 ... FALSE
CCN(CC)c1cc2oc3cc(N)cc(=N)c-3nc2cc1C ... FALSE
c1csc(-c2c3ccc(=[N+]4CCCCC4)cc-3oc3cc(N4CCCCC4)ccc23)c1 ... TRUE

Problem: Recorded call for `COc1ccc2c(Oc3ccc(NC(=O)c4c(C)n(CC(C)(C)O)n(-c5ccccc5)c4=O)nc3)ccnc2c1` ?
Solution: FALSE

Problem: Dear colleague, could you share the recorded outcome for `COC(=O)CCC1=C(CC(=O)OC)C(C)=N/C1=C\c1[nH]c(-c2ccc[nH]2)cc1OC` when you have a moment?
Solution: FALSE

* * *

System: SW-620 colon
Assay: NCI tumour cell line growth inhibition, 48 h
value.type: TGI (µM)
Write the number in µM without appending the unit.

The compound listed as `O=c1oc2ccc(Br)cc2c(=O)n1-c1ccc(F)cc1F` shows TGI equal to 16.7

response.value for COc1c(O)c(O)cc2c1-c1ccc(OC)c(=O)cc1C(NC(C)=O)CC2 (stereo not given) (field: TGI) = 63.3

* * *

System: MDA-N
Test: NCI tumour cell line growth inhibition, 48 h
Below, each entry is listed alongside its reported TGI.
Reply numerically in µM, unit not repeated.

Per the record, COc1c(O)c(O)cc2c1-c1ccc(OC)c(=O)cc1C(NC(C)=O)CC2 (stereo not given) has TGI of 4.84

Given item `CC/C(Cl)=N\OC(=O)Nc1ccc(F)c([N+](=O)[O-])c1` , the value recorded as its TGI is 39.6

So, CC1C(c2ccc3c(c2)OCO3)c2cc3c(cc2OC1N1CCOCC1)OCO3 (stereo not given) ? Its TGI was 29.1

O=C(c1ccco1)C1CC(c2c(O)ccc3ccccc23)=NN1 (stereo not given) yielded TGI of 36.4

The recorded TGI for entry CCCOC(=O)NC(C)C(=O)NC(CCC(=O)NC(CCCC(N)C(=O)O)C(=O)NC(C)C(=O)O)C(=O)O (stereo not given) equals 44.6

compound `CC1(C)[C@@H](Cn2cnc3c(Cl)nc(N)nc32)CC[C@@]1(C)CO` , TGI observed: 91.7

* * *

Test system: OVCAR-4 ovarian
Assay: NCI tumour cell line growth inhibition, 48 h
value.type: TGI

Some solved entries appear below for comparison.
Nc1ccc2nc3n(c2c1)C(=O)c1ccccc1-3 ... > 100 µM
CN1COCc2cc3cc4c(cc3nc21)OCCO4 ... > 100 µM
CC[C@@]1(O)C(=O)OCc2c1cc1n(c2=O)Cc2c-1nc1cc(F)c(C)c3c1c2[C@@H](N)CC3 ... > 100 µM
C[C@]1(S(=O)(=O)c2ccccc2)C[C@H]2N(Cc3ccccc3)[C@@H]1CCC21OCCO1 ... > 100 µM
O=[N+]([O-])c1ccc(CSCc2ccc(Cl)cc2)cc1 ... > 100 µM

TGI measured on O=C1CCCc2cc3c(cc21)CC1(C3)Cc2ccc3c(c2C1)C(=O)CCC3 (stereo not given) = > 100 µM
